The origin of these recorded values is patent US20230365675A1.

- tested_target: T1, Mutant CD33-GFP M6 (F43N) on 293FT cells (UniProt P20138 18-364)
- T1 construct: whole, on cells; not shown: GFP fused to CD33
- T1 sequence (P20138 18-364 F43N): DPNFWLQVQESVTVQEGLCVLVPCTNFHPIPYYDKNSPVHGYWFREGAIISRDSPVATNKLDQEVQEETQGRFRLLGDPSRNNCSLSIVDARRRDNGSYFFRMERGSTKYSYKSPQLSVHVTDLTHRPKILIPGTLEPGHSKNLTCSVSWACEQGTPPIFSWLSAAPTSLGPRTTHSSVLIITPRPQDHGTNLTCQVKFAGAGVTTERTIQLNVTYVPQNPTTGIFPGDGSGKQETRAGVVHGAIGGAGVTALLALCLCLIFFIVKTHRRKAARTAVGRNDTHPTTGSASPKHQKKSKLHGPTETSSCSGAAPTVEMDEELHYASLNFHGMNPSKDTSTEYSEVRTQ
- experiment_description: FACS, mutant CD33-GFP on 293FT cells
Recorded FACS binding data values for a group of binders are listed next.
// no unit string in output, number only

A selection of reference data follows.
hu195 (antibody, V domains shown) VH: QVQLVQSGAEVKKPGSSVKVSCKASGYTFTDYNMHWVRQAPGQGLEWIGYIYPYNGGTGYNCIKFKSKATITADESTNTAYMELSSLRSEDTAVYYCARGRPAMDYWGQGTLVTVSS VL: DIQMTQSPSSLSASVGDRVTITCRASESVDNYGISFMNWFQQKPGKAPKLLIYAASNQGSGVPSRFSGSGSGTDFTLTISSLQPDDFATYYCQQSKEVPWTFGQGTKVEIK
99.4
sdCD33_11 (VHH, sdAb from a naive llama phage library; also called 430; sdAb430) VHH: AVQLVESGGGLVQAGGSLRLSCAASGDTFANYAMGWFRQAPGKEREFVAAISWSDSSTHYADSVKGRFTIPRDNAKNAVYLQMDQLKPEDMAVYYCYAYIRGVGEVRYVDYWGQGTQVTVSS
98.8

Turning now to a further record.
### Prompt May I ask what FACS binding data has been recorded for sdCD33_5 (VHH, sdAb from a naive llama phage library; also called 413; sdAb413) VHH: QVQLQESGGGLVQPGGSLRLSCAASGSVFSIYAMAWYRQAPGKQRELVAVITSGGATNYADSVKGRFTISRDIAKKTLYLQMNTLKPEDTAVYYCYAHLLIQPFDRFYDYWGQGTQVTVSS ?
### Response 97.5
